Cited source for all entries: ChEMBL document CHEMBL1777724

measured-target: Sphingosine 1-phosphate receptor 4 (Homo sapiens, UniProt O95977)
Sequence (O95977 whole entry): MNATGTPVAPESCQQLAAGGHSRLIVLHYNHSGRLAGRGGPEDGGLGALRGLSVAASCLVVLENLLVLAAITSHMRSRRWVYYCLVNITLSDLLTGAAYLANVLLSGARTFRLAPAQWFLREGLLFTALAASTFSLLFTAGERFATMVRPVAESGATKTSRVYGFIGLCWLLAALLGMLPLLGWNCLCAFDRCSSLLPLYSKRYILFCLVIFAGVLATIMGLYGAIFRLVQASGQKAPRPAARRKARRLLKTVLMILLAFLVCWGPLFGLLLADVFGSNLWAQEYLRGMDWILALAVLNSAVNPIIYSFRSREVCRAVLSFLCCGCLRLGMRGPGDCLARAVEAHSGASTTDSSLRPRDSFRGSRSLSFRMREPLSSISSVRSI
experimental-protocol: Antagonist activity at S1P4 receptor in human U2OS cells expressing EDG6-linked GAL4-VP16 transcription factor via TEV protease site/beta-arrestin/TEV protease fusion protein and beta-lactamase reporter gene assessed as beta-lactamase expression by FRET assay
Parameter: IC50. Scope: all listed entries.
Report the figure along with its unit, number first.

Here's what some known entries look like.
structure-as-smiles: Cc1cc(CN)cc(C)c1NC(=O)c1ccc(-c2cc(Cl)ccc2Cl)o1
IC50: 25 nM

structure-as-smiles: CC(C)c1cccc(C(C)C)c1NC(=O)c1ccc(-c2cc(Cl)ccc2Cl)o1
IC50: 105 nM

structure-as-smiles: COc1cccc(C)c1NC(=O)c1ccc(-c2cc(Cl)ccc2Cl)o1
IC50: 163 nM

For this compound ( `Cc1cc(-c2ccccc2)cc(C)c1NC(=O)c1ccc(-c2cc(Cl)ccc2Cl)o1` ), measured IC50 is 115 nM

For this compound ( `Cc1cc(C)c(N(C)C(=O)c2ccc(-c3cc(Cl)ccc3Cl)o2)c(C)c1` ), measured IC50 is 8100 nM

###

measured-target: UniProt:Q99500
Sequence (Q99500 whole entry): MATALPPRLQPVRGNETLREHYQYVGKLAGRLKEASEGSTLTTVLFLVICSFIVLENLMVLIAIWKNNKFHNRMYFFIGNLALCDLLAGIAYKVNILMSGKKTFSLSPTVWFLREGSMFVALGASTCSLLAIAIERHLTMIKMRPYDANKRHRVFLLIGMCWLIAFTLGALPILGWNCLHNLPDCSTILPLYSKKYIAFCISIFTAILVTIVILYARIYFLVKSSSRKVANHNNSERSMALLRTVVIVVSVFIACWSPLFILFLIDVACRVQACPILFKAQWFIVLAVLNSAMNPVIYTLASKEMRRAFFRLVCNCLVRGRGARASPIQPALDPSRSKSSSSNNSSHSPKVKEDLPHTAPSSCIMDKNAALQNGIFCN
experimental-protocol: Inhibition of S1P3 receptor at 25 uM
Activity calls are given as the source filed them. The rule behind the calls is not given here.
measure: inhibition

structure-as-smiles: Cc1cc(CO)cc(C)c1NC(=O)c1ccc(-c2cc(Cl)ccc2Cl)o1
inhibition: 60%

structure-as-smiles: Cc1cc(CN)cc(C)c1NC(=O)c1ccc(-c2cc(Cl)ccc2Cl)o1
inhibition: 95%

structure-as-smiles: CCc1cccc(C)c1NC(=O)c1ccc(-c2cc(Cl)ccc2Cl)o1
inhibition: 55%

structure-as-smiles: COc1cc(C)c(NC(=O)c2ccc(-c3cc(Cl)ccc3Cl)o2)c(C)c1
inhibition: 30%

structure-as-smiles: CCc1cccc(CC)c1NC(=O)c1ccc(-c2cc(Cl)ccc2Cl)o1
inhibition: inactive

Record `Cc1ccsc1-c1ccc(C(=O)Nc2c(C)cc(CO)cc2C)o1` has UniProt:Q99500 inhibition equal to inactive

Record `Cc1ccsc1-c1ccc(C(=O)Nc2c(C)cccc2C)o1` has UniProt:Q99500 inhibition equal to 20%

Record `Cc1ccsc1-c1ccc(C(=O)Nc2c(C)cc(O)cc2C)o1` has UniProt:Q99500 inhibition equal to 10%

Record `Cc1cc(OCCO)cc(C)c1NC(=O)c1ccc(-c2cc(Cl)ccc2Cl)o1` has UniProt:Q99500 inhibition equal to 70%

###

Entries below carry reported IC50 on Sphingosine 1-phosphate receptor 5 (Homo sapiens, UniProt Q9H228).
Sequence (Q9H228 whole entry): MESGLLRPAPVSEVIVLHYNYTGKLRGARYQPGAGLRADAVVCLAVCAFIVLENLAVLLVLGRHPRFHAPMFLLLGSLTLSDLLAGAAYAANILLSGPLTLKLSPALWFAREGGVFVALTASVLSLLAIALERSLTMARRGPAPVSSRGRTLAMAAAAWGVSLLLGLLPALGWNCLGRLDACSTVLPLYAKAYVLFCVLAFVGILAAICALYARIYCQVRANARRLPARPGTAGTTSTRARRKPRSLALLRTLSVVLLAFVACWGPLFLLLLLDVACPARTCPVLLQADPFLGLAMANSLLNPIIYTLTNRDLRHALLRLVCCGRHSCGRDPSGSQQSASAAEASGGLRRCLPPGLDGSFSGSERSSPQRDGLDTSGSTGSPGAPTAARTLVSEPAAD
Write the number in µM without appending the unit.

structure-as-smiles: Cc1cccc(C)c1NC(=O)c1ccc(-c2cc(Cl)ccc2Cl)o1
measured-target: Sphingosine 1-phosphate receptor 5 (Homo sapiens, UniProt Q9H228)
measure: IC50
unit-spec: µM
numeric-result: 14

Shifting focus to the compound that follows.
Record `Cc1cc(CN)cc(C)c1NC(=O)c1ccc(-c2cc(Cl)ccc2Cl)o1` has Sphingosine 1-phosphate receptor 5 (Homo sapiens, UniProt Q9H228) IC50 equal to 5.5

###

measured-target: Sphingosine 1-phosphate receptor 4 (Homo sapiens, UniProt O95977)
Sequence (O95977 whole entry): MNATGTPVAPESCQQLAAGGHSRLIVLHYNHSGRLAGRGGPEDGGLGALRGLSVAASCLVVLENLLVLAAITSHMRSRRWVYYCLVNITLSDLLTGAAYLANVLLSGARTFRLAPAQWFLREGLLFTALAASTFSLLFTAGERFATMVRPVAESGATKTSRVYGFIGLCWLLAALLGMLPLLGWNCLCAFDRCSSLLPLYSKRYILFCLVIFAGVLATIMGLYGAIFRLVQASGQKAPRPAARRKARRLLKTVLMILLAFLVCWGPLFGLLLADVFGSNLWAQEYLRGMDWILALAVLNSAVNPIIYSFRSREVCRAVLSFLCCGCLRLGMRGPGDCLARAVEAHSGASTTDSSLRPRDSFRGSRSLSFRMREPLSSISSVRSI
experimental-protocol: Antagonist activity at S1P4 receptor in human U2OS cells expressing EDG6-linked GAL4-VP16 transcription factor via TEV protease site/beta-arrestin/TEV protease fusion protein and beta-lactamase reporter gene assessed as beta-lactamase expression by FRET assay
measure: pIC50
Notebook: values listed as pIC50 are -log10 of the concentration (mol/L).

Here's what some known entries look like.
structure-as-smiles: COc1cccc(OC)c1NC(=O)c1ccc(-c2cc(Cl)ccc2Cl)o1
pIC50: 6.38

structure-as-smiles: Cc1ccc(C)c(NC(=O)c2ccc(-c3cc(Cl)ccc3Cl)o2)c1
pIC50: 6.78

structure-as-smiles: Cc1cc(CO)cc(C)c1NC(=O)c1ccc(-c2cc(Cl)ccc2Cl)o1
pIC50: 7.68

structure-as-smiles: Cc1cccc(C)c1NC(=O)c1ccc(-c2ccc(Cl)cc2Cl)o1
pIC50: 5.70

structure-as-smiles: Cc1cc(OCC(N)=O)cc(C)c1NC(=O)c1ccc(-c2cc(Cl)ccc2Cl)o1
pIC50: 7.28

For this molecule ( `Cc1ccc2ccccc2c1NC(=O)c1ccc(-c2cc(Cl)ccc2Cl)o1` ), measured pIC50 is 6.60

For this molecule ( `COc1ccc(C)c(NC(=O)c2ccc(-c3cc(Cl)ccc3Cl)o2)c1` ), measured pIC50 is 6.03

###

measured-target: Sphingosine 1-phosphate receptor 4 (Homo sapiens)
experimental-protocol: Antagonist activity at S1P4 receptor in human U2OS cells expressing EDG6-linked GAL4-VP16 transcription factor via TEV protease site/beta-arrestin/TEV protease fusion protein and beta-lactamase reporter gene assessed as beta-lactamase expression by FRET assay
measure: IC50

Here's what some known entries look like.
structure-as-smiles: Cc1cccc(CO)c1NC(=O)c1ccc(-c2cc(Cl)ccc2Cl)o1
result: 573 nM
//
structure-as-smiles: Cc1ccsc1-c1ccc(C(=O)Nc2c(C)cccc2C)o1
result: 93 nM
//
structure-as-smiles: O=C(Nc1c(F)cccc1F)c1ccc(-c2cc(Cl)ccc2Cl)o1
result: 6400 nM
//
structure-as-smiles: COc1ccc(OC)c(-c2ccc(C(=O)N(C)c3c(C)cccc3C)o2)c1
result: 513 nM
//
structure-as-smiles: Cc1cccc(C)c1NC(=O)c1ccc(-c2ccccc2)o1
result: 575 nM

For this molecule ( `Cc1ccc(S(C)(=O)=O)c(C)c1NC(=O)c1ccc(-c2cc(Cl)ccc2Cl)o1` ), measured IC50 is 302 nM

###

measured-target: Sphingosine 1-phosphate receptor 5 (Homo sapiens)
experimental-protocol: Inhibition of S1P5 receptor at 25 uM
Activity calls are given as the source filed them. The rule behind the calls is not given here.
measure: inhibition

structure-as-smiles: COc1cc(C)c(NC(=O)c2ccc(-c3cc(Cl)ccc3Cl)o2)c(C)c1
inhibition: 40%

structure-as-smiles: CCc1cccc(CC)c1NC(=O)c1ccc(-c2cc(Cl)ccc2Cl)o1
inhibition: inactive

structure-as-smiles: CCc1cccc(C)c1NC(=O)c1ccc(-c2cc(Cl)ccc2Cl)o1
inhibition: 50%

structure-as-smiles: Cc1ccsc1-c1ccc(C(=O)Nc2c(C)cc(O)cc2C)o1
inhibition: inactive

structure-as-smiles: Cc1cc(CN)cc(C)c1NC(=O)c1ccc(-c2cc(Cl)ccc2Cl)o1
inhibition: 90%

structure-as-smiles: Cc1cc(OCCO)cc(C)c1NC(=O)c1ccc(-c2cc(Cl)ccc2Cl)o1
inhibition: 60%

structure-as-smiles: Cc1ccsc1-c1ccc(C(=O)Nc2c(C)cc(CO)cc2C)o1
inhibition: inactive

structure-as-smiles: Cc1ccsc1-c1ccc(C(=O)Nc2c(C)cccc2C)o1
inhibition: 40%

Shifting focus to the compound that follows.
Record `Cc1cc(CO)cc(C)c1NC(=O)c1ccc(-c2cc(Cl)ccc2Cl)o1` has Sphingosine 1-phosphate receptor 5 (Homo sapiens) inhibition equal to 40%

###

measured-target: Sphingosine 1-phosphate receptor 1 (Homo sapiens)
experimental-protocol: Inhibition of S1P1 receptor
measure: IC50 (µM)
Write the number in µM without appending the unit.

For this compound ( `Cc1cc(CN)cc(C)c1NC(=O)c1ccc(-c2cc(Cl)ccc2Cl)o1` ), measured IC50 is 6.4

###

measured-target: Sphingosine 1-phosphate receptor 1 (Homo sapiens, UniProt P21453)
Sequence (P21453 whole entry): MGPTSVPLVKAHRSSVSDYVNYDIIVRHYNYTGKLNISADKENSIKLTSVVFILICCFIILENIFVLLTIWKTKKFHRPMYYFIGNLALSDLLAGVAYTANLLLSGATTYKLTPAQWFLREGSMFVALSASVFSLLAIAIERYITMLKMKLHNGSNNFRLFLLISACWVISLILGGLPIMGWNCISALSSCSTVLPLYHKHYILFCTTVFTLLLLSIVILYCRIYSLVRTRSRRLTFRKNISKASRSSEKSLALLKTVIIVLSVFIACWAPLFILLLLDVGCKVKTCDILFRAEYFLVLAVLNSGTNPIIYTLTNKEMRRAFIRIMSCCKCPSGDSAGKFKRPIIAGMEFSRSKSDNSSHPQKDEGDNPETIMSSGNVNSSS
experimental-protocol: Inhibition of S1P1 receptor at 25 uM
Activity calls are given as the source filed them. No cut-off for these calls is given here.
measure: inhibition

structure-as-smiles: CCc1cccc(CC)c1NC(=O)c1ccc(-c2cc(Cl)ccc2Cl)o1
result: inactive
//
structure-as-smiles: Cc1ccsc1-c1ccc(C(=O)Nc2c(C)cccc2C)o1
result: 95%
//
structure-as-smiles: COc1cc(C)c(NC(=O)c2ccc(-c3cc(Cl)ccc3Cl)o2)c(C)c1
result: 20%
//
structure-as-smiles: Cc1cc(CO)cc(C)c1NC(=O)c1ccc(-c2cc(Cl)ccc2Cl)o1
result: 45%
//
structure-as-smiles: Cc1ccsc1-c1ccc(C(=O)Nc2c(C)cc(CO)cc2C)o1
result: 80%

Record `Cc1cc(OCCO)cc(C)c1NC(=O)c1ccc(-c2cc(Cl)ccc2Cl)o1` has Sphingosine 1-phosphate receptor 1 (Homo sapiens, UniProt P21453) inhibition equal to 35%

Record `Cc1ccsc1-c1ccc(C(=O)Nc2c(C)cc(O)cc2C)o1` has Sphingosine 1-phosphate receptor 1 (Homo sapiens, UniProt P21453) inhibition equal to 75%

Record `CCc1cccc(C)c1NC(=O)c1ccc(-c2cc(Cl)ccc2Cl)o1` has Sphingosine 1-phosphate receptor 1 (Homo sapiens, UniProt P21453) inhibition equal to inactive
